# System: Abutilon theophrasti (ABUTH)
# Assay summary: Glasshouse herbicide test, pre-emergence
# Type: in vivo
# Condition parameters: PRE Application; 500 g/h; evaluated after 13 days
Listing: percentage damage caused to the plant, five point scale, ABUTH of selected compounds
Endpoint: percentage damage caused to the plant, five point scale, ABUTH

| Molecule | Result |
| --- | --- |
| CON(C(=O)OC(C)(C)C)c1c(C(F)(F)F)ccc(C(=O)Nc2nnnn2C)c1Cl | 5 (5=80-100%) |
| CC(C)ON(C)c1c(S(C)(=O)=O)ccc(C(=O)Nc2nnnn2C)c1Cl | 5 (5=80-100%) |
| CON(C(=O)C(C)(C)C)c1c(C(F)(F)F)ccc(C(=O)Nc2nnnn2C)c1F | 5 (5=80-100%) |
